# Assay Target: Adenosine receptor A1 (Rattus norvegicus) (UniProt P25099)
# Procedure Summary: Maximal inhibition of adenylate cyclase activity relative to R-PIA for Adenosine A1 receptor (Inhibition by R-PIA=53+/-10%)
Experimental Readout: relative max inhibition (%)
Please give a number only; it is taken to be in %.

Field relative max inhibition (entry Nc1ccnc2c1ncn2[C@@H]1O[C@H](CO)[C@@H](O)[C@H]1O ) reads 97

Field relative max inhibition (entry CCNC(=O)[C@H]1O[C@@H](n2cnc3c(N)ccnc32)[C@H](O)[C@@H]1O ) reads 104

Field relative max inhibition (entry OC[C@H]1O[C@@H](n2cnc3c(NC4CCCCC4)cc(Cl)nc32)[C@H](O)[C@@H]1O ) reads 114

Field relative max inhibition (entry OC[C@H]1O[C@@H](n2cnc3c(NC4CCCC4)cc(Cl)nc32)[C@H](O)[C@@H]1O ) reads 107

Field relative max inhibition (entry CC(Cc1ccccc1)Nc1ccnc2c1ncn2C1O[C@H](CO)[C@@H](O)[C@H]1O (stereo partly drawn) ) reads 116

Field relative max inhibition (entry OC[C@H]1O[C@@H](n2cnc3c(NC4CCCCC4)ccnc32)[C@H](O)[C@@H]1O ) reads 109

Field relative max inhibition (entry OC[C@H]1O[C@@H](n2cnc3c(NC4CCCC4)ccnc32)[C@H](O)[C@@H]1O ) reads 107

Field relative max inhibition (entry CC(Cc1ccccc1)Nc1cc(Cl)nc2c1ncn2C1O[C@H](CO)[C@@H](O)[C@H]1O (stereo partly drawn) ) reads 108

* * *

# Procedure Summary: A1 selectivity as ratio of EC50 at A2 receptor to IC50 at A1 receptor
# note: exactly 10 is not below, so it is not fulfilled; use fulfilled for Selectivity strictly under it

In: Please state whether Selectivity is below 10 for CCNC(=O)[C@H]1O[C@@H](n2cnc3c(N)ccnc32)[C@H](O)[C@@H]1O
Out: fulfilled

In: Please state whether Selectivity is below 10 for Nc1ccnc2c1ncn2[C@@H]1O[C@H](CO)[C@@H](O)[C@H]1O
Out: fulfilled

In: Please state whether Selectivity is below 10 for OC[C@H]1O[C@@H](n2cnc3c(NC4CCCCC4)ccnc32)[C@H](O)[C@@H]1O
Out: not fulfilled

In: Please state whether Selectivity is below 10 for CC(Cc1ccccc1)Nc1ccnc2c1ncn2C1O[C@H](CO)[C@@H](O)[C@H]1O (stereo partly drawn)
Out: not fulfilled

In: Please state whether Selectivity is below 10 for OC[C@H]1O[C@@H](n2cnc3c(NC4CCCCC4)cc(Cl)nc32)[C@H](O)[C@@H]1O
Out: fulfilled

In: Please state whether Selectivity is below 10 for OC[C@H]1O[C@@H](n2cnc3c(NC4CCCC4)cc(Cl)nc32)[C@H](O)[C@@H]1O
Out: not fulfilled

In: Please state whether Selectivity is below 10 for CC(Cc1ccccc1)Nc1cc(Cl)nc2c1ncn2C1O[C@H](CO)[C@@H](O)[C@H]1O (stereo partly drawn)
Out: fulfilled

In: Please state whether Selectivity is below 10 for OC[C@H]1O[C@@H](n2cnc3c(NC4CCCC4)ccnc32)[C@H](O)[C@@H]1O
Out: not fulfilled

* * *

# Assay Target: Adenosine receptor A1 (Rattus norvegicus, UniProt P25099)
# Procedure Summary: Inhibition of Adenylate cyclase activity in rat fat cell membrane at adenosine A1 receptor
Experimental Readout: IC50 (nM)
Please give a number only; it is taken to be in nM.

Field IC50 (entry OC[C@H]1O[C@@H](n2cnc3c(NC4CCCC4)cc(Cl)nc32)[C@H](O)[C@@H]1O ) reads 360

Field IC50 (entry OC[C@H]1O[C@@H](n2cnc3c(NC4CCCC4)ccnc32)[C@H](O)[C@@H]1O ) reads 970

Field IC50 (entry OC[C@H]1O[C@@H](n2cnc3c(NC4CCCCC4)cc(Cl)nc32)[C@H](O)[C@@H]1O ) reads 2400

* * *

Here we list compounds with their recorded EC50 when tested on Adenosine A2 receptor (Homo sapiens, UniProt P29275+P29274).
Please give a number only; it is taken to be in µM.

Field EC50 (entry OC[C@H]1O[C@@H](n2cnc3c(NC4CCCCC4)cc(Cl)nc32)[C@H](O)[C@@H]1O ) reads 4.8

Field EC50 (entry CCNC(=O)[C@H]1O[C@@H](n2cnc3c(N)ccnc32)[C@H](O)[C@@H]1O ) reads 2.8

Field EC50 (entry OC[C@H]1O[C@@H](n2cnc3c(NC4CCCC4)cc(Cl)nc32)[C@H](O)[C@@H]1O ) reads 28

Field EC50 (entry CC(Cc1ccccc1)Nc1cc(Cl)nc2c1ncn2C1O[C@H](CO)[C@@H](O)[C@H]1O (stereo not given in full) ) reads 3.5

Field EC50 (entry OC[C@H]1O[C@@H](n2cnc3c(NC4CCCCC4)ccnc32)[C@H](O)[C@@H]1O ) reads 20

* * *

# Assay Target: Adenosine A2 receptor (Rattus norvegicus, UniProt P29276+P30543)
Labels assigned by Ki range: lowest = under 3 µM, middle = from 3 µM up to 8 µM, highest = 8 µM and over

In: Assign a category based on measured Ki for OC[C@H]1O[C@@H](n2cnc3c(NC4CCCCC4)ccnc32)[C@H](O)[C@@H]1O and give only the class name.
Out: middle

In: Assign a category based on measured Ki for CC(Cc1ccccc1)Nc1ccnc2c1ncn2C1O[C@H](CO)[C@@H](O)[C@H]1O (some centres undefined) and give only the class name.
Out: middle

In: Assign a category based on measured Ki for OC[C@H]1O[C@@H](n2cnc3c(NC4CCCC4)ccnc32)[C@H](O)[C@@H]1O and give only the class name.
Out: highest

In: Assign a category based on measured Ki for CC(Cc1ccccc1)Nc1cc(Cl)nc2c1ncn2C1O[C@H](CO)[C@@H](O)[C@H]1O (some centres undefined) and give only the class name.
Out: middle

In: Assign a category based on measured Ki for OC[C@H]1O[C@@H](n2cnc3c(NC4CCCC4)ncnc32)[C@H](O)[C@@H]1O [N6-CYCLOPENTYLADENOSINE] and give only the class name.
Out: lowest

In: Assign a category based on measured Ki for OC[C@H]1O[C@@H](n2cnc3c(NC4CCCC4)cc(Cl)nc32)[C@H](O)[C@@H]1O and give only the class name.
Out: highest

In: Assign a category based on measured Ki for Nc1ccnc2c1ncn2[C@@H]1O[C@H](CO)[C@@H](O)[C@H]1O and give only the class name.
Out: lowest

In: Assign a category based on measured Ki for CCNC(=O)[C@H]1O[C@@H](n2cnc3c(N)ccnc32)[C@H](O)[C@@H]1O and give only the class name.
Out: lowest

* * *

Here we list compounds with their recorded EC50 when tested on Adenosine A2 receptor (Homo sapiens, UniProt P29275+P29274).
Please give a number only; it is taken to be in µM.

Field EC50 (entry CC(Cc1ccccc1)Nc1ccnc2c1ncn2C1O[C@H](CO)[C@@H](O)[C@H]1O (stereo partly drawn) ) reads 6.6

Field EC50 (entry OC[C@H]1O[C@@H](n2cnc3c(NC4CCCC4)ccnc32)[C@H](O)[C@@H]1O ) reads 26

Field EC50 (entry Nc1ccnc2c1ncn2[C@@H]1O[C@H](CO)[C@@H](O)[C@H]1O ) reads 18

* * *

# Species on record: Homo sapiens
# Procedure Summary: Concentration that inhibits platelet aggregation induced by ADP (7 uM) by 50%
# Format: functional
Experimental Readout: IC50 (µM)
Please give a number only; it is taken to be in µM.

Field IC50 (entry CCNC(=O)[C@H]1O[C@@H](n2cnc3c(N)ccnc32)[C@H](O)[C@@H]1O ) reads 5.96

Field IC50 (entry Nc1ncnc2c1ncn2[C@@H]1O[C@H](CO)[C@@H](O)[C@H]1O ) reads 5.94

Field IC50 (entry CCNC(=O)[C@H]1O[C@@H](n2cnc3c(N)ncnc32)[C@H](O)[C@@H]1O ) reads 0.6

Field IC50 (entry Nc1ccnc2c1ncn2[C@@H]1O[C@H](CO)[C@@H](O)[C@H]1O ) reads 65.5

* * *

# Assay Target: Adenosine receptor A1 (Rattus norvegicus)
# Sequence (P25099 whole entry): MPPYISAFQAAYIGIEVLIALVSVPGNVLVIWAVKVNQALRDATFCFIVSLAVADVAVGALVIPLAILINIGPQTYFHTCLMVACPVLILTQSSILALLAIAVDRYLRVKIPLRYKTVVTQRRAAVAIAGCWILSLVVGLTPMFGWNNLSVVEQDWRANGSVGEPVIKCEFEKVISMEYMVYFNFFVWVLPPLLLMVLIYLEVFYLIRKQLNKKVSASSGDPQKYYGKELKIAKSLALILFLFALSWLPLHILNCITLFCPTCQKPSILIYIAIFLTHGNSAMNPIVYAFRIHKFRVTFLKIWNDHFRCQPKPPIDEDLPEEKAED
# Procedure Summary: Inhibition of Adenylate cyclase activity in rat fat cell membrane at adenosine A1 receptor
Hi there, I'd appreciate the recorded IC50 for every entry that follows.
Please give a number only; it is taken to be in nM.

Field IC50 (entry CC(Cc1ccccc1)Nc1cc(Cl)nc2c1ncn2C1O[C@H](CO)[C@@H](O)[C@H]1O (stereo not given in full) ) reads 960

Field IC50 (entry CCNC(=O)[C@H]1O[C@@H](n2cnc3c(N)ccnc32)[C@H](O)[C@@H]1O ) reads 1500

Field IC50 (entry Nc1ccnc2c1ncn2[C@@H]1O[C@H](CO)[C@@H](O)[C@H]1O ) reads 6700

Field IC50 (entry OC[C@H]1O[C@@H](n2cnc3c(NC4CCCCC4)ccnc32)[C@H](O)[C@@H]1O ) reads 1600

Field IC50 (entry CC(Cc1ccccc1)Nc1ccnc2c1ncn2C1O[C@H](CO)[C@@H](O)[C@H]1O (stereo not given in full) ) reads 630
